Target: T1, cyno TfR extracellular domain (analogous construct to human TfR ecd) (cynomolgus monkey, UniProt Q5RDH6 87-760 (Pongo abelii entry))
T1 construct: also called cynoTfR ecd
T1 chain: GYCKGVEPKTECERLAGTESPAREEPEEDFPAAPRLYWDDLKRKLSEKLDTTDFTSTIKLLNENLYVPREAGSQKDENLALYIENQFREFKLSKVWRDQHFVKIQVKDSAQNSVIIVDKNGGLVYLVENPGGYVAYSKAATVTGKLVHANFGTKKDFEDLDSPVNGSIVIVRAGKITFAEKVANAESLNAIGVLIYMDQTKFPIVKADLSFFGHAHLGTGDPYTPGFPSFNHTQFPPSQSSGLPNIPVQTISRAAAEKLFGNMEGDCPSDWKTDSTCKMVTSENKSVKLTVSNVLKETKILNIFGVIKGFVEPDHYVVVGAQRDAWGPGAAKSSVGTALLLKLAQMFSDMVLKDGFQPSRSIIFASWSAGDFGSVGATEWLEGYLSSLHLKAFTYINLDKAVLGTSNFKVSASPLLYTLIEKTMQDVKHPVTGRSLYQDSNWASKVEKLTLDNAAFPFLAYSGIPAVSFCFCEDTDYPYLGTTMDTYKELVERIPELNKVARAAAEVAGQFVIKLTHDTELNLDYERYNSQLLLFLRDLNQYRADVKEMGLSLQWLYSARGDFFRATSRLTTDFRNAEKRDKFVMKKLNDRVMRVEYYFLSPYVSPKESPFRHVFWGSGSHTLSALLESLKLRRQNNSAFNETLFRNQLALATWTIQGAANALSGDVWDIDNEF
Assay: ELISA, IgG;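 note: ELISA of IgG-containing supernatants tested in 1:5 serial dilutions for 1 h, bound antibody read out with HRP anti-kappa antibody and TMB substrate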
Friendly reminder: EC50 below 0.02 µg/mL is Condition met, at or above is Condition not met.

Field: example entries. Status: answers known.
binder	label
M100bA (antibody, V domains shown, also called 7A4.v15 M100bA (CDR-H3) IgG; copies: 2 + 2) VH: EVQLVQSGAEVKKPGASVKVSCKGSGYTFTDYAMHWVRQAPGQGLEWMGGISTYFGRTNYNQKFKGRVTMTVDTSISTAYMELSRLRSDDTAVYYCARGLSGNYVADYWGQGTTVTVSS VL: DIVMTQSPDSLAVSLGERATINCRASESVDSYGNSFMHWYQQKPGQPPKLLIYRASNLESGVPDRFSGSGSRTDFTLTISSLQAEDVAVYYCQQSNEAPPTFGQGTKLEIK	Condition met
N99A (antibody, V domains shown, also called 7A4.v15 N99A (CDR-H3) IgG; copies: 2 + 2) VH: EVQLVQSGAEVKKPGASVKVSCKGSGYTFTDYAMHWVRQAPGQGLEWMGGISTYFGRTNYNQKFKGRVTMTVDTSISTAYMELSRLRSDDTAVYYCARGLSGAYVMDYWGQGTTVTVSS VL: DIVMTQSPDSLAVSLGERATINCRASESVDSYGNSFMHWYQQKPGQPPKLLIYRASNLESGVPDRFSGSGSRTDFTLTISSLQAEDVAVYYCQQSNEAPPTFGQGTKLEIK	Condition not met
hu7A4.v15 IgG (antibody, V domains shown, Human IgG; also called humanized 7A4.v15) VH: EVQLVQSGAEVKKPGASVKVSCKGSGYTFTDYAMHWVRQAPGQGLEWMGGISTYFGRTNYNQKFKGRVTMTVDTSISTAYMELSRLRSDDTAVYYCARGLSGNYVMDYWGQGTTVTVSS VL: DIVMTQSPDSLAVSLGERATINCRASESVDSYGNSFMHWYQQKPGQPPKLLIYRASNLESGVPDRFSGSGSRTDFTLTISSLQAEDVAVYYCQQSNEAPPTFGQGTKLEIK	Condition met
G98A (antibody, V domains shown, also called 7A4.v15 G98A (CDR-H3) IgG; copies: 2 + 2) VH: EVQLVQSGAEVKKPGASVKVSCKGSGYTFTDYAMHWVRQAPGQGLEWMGGISTYFGRTNYNQKFKGRVTMTVDTSISTAYMELSRLRSDDTAVYYCARGLSANYVMDYWGQGTTVTVSS VL: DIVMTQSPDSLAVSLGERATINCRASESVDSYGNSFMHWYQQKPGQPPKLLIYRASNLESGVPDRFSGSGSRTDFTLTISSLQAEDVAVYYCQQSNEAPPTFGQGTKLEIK	Condition not met
Q89A (antibody, V domains shown, also called 7A4.v15 Q89A (CDR-L3) IgG) VH: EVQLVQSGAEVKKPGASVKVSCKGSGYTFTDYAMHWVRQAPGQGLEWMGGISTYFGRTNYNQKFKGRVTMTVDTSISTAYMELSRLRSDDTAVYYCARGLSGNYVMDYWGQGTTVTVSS VL: DIVMTQSPDSLAVSLGERATINCRASESVDSYGNSFMHWYQQKPGQPPKLLIYRASNLESGVPDRFSGSGSRTDFTLTISSLQAEDVAVYYCAQSNEAPPTFGQGTKLEIK	Condition met

Does G95A (antibody, V domains shown, also called 7A4.v15 G95A (CDR-H3) IgG; copies: 2 + 2) VH: EVQLVQSGAEVKKPGASVKVSCKGSGYTFTDYAMHWVRQAPGQGLEWMGGISTYFGRTNYNQKFKGRVTMTVDTSISTAYMELSRLRSDDTAVYYCARALSGNYVMDYWGQGTTVTVSS VL: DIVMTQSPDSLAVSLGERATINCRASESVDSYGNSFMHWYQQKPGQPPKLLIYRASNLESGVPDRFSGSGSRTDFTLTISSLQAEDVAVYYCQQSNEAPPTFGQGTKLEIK have EC50 strictly under 0.02 µg/mL?
Condition not met

Lab note: confirm whether the reported EC50 for this binder is below 0.02 µg/mL, equality not counting. binder: D101A (antibody, V domains shown, also called 7A4.v15 D101A (CDR-H3) IgG; copies: 2 + 2) VH: EVQLVQSGAEVKKPGASVKVSCKGSGYTFTDYAMHWVRQAPGQGLEWMGGISTYFGRTNYNQKFKGRVTMTVDTSISTAYMELSRLRSDDTAVYYCARGLSGNYVMAYWGQGTTVTVSS VL: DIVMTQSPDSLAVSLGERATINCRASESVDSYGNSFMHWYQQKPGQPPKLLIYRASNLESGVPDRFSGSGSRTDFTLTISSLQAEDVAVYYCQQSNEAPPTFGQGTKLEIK
Condition met

Would you kindly verify if EC50 of T97A (antibody, V domains shown, also called 7A4.v15 T97A (CDR-L3) IgG) VH: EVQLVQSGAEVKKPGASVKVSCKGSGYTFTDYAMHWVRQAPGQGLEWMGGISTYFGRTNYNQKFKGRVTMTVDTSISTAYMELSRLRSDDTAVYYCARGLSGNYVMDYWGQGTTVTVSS VL: DIVMTQSPDSLAVSLGERATINCRASESVDSYGNSFMHWYQQKPGQPPKLLIYRASNLESGVPDRFSGSGSRTDFTLTISSLQAEDVAVYYCQQSNEAPPAFGQGTKLEIK is strictly less than 0.02 µg/mL?
Condition not met

Consider Y100A (antibody, V domains shown, also called 7A4.v15 Y100A (CDR-H3) IgG; copies: 2 + 2) VH: EVQLVQSGAEVKKPGASVKVSCKGSGYTFTDYAMHWVRQAPGQGLEWMGGISTYFGRTNYNQKFKGRVTMTVDTSISTAYMELSRLRSDDTAVYYCARGLSGNAVMDYWGQGTTVTVSS VL: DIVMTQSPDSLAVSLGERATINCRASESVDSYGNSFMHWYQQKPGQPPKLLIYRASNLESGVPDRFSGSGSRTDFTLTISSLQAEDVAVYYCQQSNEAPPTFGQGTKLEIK . Does its EC50 lie strictly below 0.02 µg/mL?
Condition not met

Please indicate whether the reported EC50 of P95A (antibody, V domains shown, also called 7A4.v15 P95A (CDR-L3) IgG) VH: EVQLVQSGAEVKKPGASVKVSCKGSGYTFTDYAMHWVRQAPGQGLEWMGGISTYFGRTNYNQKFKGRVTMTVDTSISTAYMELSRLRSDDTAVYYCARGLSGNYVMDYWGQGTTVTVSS VL: DIVMTQSPDSLAVSLGERATINCRASESVDSYGNSFMHWYQQKPGQPPKLLIYRASNLESGVPDRFSGSGSRTDFTLTISSLQAEDVAVYYCQQSNEAAPTFGQGTKLEIK is strictly below 0.02 µg/mL.
Condition met
